The measured values listed here are drawn from ChEMBL document CHEMBL1136283.

Target: Beta-galactosidase (Bos taurus, UniProt Q58D55)
Sequence (Q58D55 whole entry): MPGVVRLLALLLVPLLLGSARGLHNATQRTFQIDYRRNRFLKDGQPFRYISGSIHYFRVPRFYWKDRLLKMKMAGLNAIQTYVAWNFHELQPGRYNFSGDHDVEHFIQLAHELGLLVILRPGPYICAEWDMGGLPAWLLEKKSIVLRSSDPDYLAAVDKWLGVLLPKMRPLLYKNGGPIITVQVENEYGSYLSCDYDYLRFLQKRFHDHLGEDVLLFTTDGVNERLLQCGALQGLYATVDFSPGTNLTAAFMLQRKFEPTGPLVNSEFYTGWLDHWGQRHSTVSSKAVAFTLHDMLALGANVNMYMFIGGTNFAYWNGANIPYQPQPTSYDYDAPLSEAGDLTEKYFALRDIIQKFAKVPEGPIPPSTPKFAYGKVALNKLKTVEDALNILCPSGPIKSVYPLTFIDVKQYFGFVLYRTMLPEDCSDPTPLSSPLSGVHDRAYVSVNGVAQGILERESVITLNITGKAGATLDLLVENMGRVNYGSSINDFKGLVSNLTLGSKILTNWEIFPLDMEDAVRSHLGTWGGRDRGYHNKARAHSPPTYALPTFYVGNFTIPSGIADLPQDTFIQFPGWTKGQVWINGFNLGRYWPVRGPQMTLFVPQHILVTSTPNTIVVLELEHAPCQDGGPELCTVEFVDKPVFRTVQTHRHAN
pKi: −log10 of the molar value.

{"columns": ["compound", "testSystem", "pKi"],
 "data": [
  ["CCCCCCCCCCNC1CC(C)C(O)C(O)C1O (configuration not stated)", "Beta-galactosidase (Bos taurus, UniProt Q58D55)", 8.05],
  ["CCCCCCCCNC1CC(C)C(O)C(O)C1O (configuration not stated)", "Beta-galactosidase (Bos taurus, UniProt Q58D55)", 6.96]
]}

* * *

Test: Inhibitory activity against beta-glucosidase in almond
Set-up: species or system Prunus dulcis
# Ki values compiled below

{"columns": ["molecule", "Ki"],
 "data": [
  ["CC1CC(NCCCCc2ccccc2)C(O)C(O)C1O (stereo not drawn)", "1200 nM"],
  ["CCCCCCCCCCNC1CC(C)C(O)C(O)C1O (stereo not drawn)", "400 nM"],
  ["CCCCCCCCNC1CC(C)C(O)C(O)C1O (stereo not drawn)", "3200 nM"]
]}
